Source listed as ChEMBL document CHEMBL1152618.

target: Endothelin receptor type B (Mus musculus, UniProt P48302)
Sequence (P48302 whole entry): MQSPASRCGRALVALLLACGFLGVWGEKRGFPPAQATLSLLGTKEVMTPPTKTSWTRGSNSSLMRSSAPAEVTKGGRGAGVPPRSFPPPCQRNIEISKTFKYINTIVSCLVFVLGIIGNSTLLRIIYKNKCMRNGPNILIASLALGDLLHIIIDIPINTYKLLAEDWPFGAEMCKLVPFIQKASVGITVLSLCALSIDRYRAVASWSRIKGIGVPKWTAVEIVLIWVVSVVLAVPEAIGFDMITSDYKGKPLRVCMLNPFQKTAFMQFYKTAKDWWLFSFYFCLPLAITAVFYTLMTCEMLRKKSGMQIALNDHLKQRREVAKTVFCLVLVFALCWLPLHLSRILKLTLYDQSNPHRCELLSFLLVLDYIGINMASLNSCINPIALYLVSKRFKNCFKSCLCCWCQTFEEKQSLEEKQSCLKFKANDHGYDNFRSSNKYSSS
Please respond with reported pKi for every item in the list.
Lab note — pKi values are minus log10 of concentrations in M.

// returns reported pKi for input COc1ccc(C2(O)OC(=O)C(c3ccc4c(c3)OCO4)=C2Cc2cc(OC)c(OC)c(OCCBr)c2)cc1 (configuration not stated)
6.77

Item: COc1cc(CC2=C(c3ccc4c(c3)OCO4)C(=O)OC2(O)c2ccc(OCCOS(=O)(=O)c3ccc(C)cc3)cc2)cc(OC)c1OC (configuration not stated)
7.02

---

tested on: Plasma; assay: Protein binding in Wistar rat plasma at 19 MBq; assay type: ADME, cell-free
measure: PPB (%)
Please respond with the number in % and leave the unit unwritten.

Hello, I am looking for reported PPB with Plasma for COc1ccc(C2(O)OC(=O)C(c3ccc4c(c3)OCO4)=C2Cc2cc(OC)c(OC)c(OCC[18F])c2)cc1 (stereo unspecified) . Could you help?
4.6
